Measured values drawn from patent US10221163B2 for this set.

Parameter: pIC50. Scope: all listed entries.
system: NDM-1 (Klebsiella pneumoniae, UniProt C7C422)
Sequence (C7C422 whole entry, looked up, species assumed): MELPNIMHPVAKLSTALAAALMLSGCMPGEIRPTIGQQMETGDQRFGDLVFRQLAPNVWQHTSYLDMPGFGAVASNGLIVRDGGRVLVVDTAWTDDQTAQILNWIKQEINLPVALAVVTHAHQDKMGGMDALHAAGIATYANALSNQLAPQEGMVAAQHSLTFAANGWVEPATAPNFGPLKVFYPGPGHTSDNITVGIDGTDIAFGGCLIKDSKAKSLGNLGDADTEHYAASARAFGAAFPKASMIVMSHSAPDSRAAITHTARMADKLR
method.notes: biochemical
Type: biochemical
test.context: fluorescence assay, CCF2-FA substrate, 1 pM enzyme, 2 hours at 25° C.; read-out: NDM-1 IC50
pIC50: −log10 of the molar value.

molecule: Nc1ccc(-c2ccc(S(=O)(=O)N[C@@H]3CCNC3)c(S(N)(=O)=O)c2-c2nn[nH]n2)cn1
pIC50: 9.98
--
molecule: NCCNS(=O)(=O)c1ccc(-c2cccc(NC(=O)[C@@H](N)CN)c2)c(-c2nn[nH]n2)c1S(N)(=O)=O
pIC50: 9.06
--
molecule: Nc1nc2c(-c3ccc(S(=O)(=O)NC[C@H](N)CO)c(S(N)(=O)=O)c3-c3nn[nH]n3)cccc2[nH]1
pIC50: 10.33
--
molecule: C[N+]1(CCN)CC[C@H](NS(=O)(=O)c2ccc(-c3cccc4[nH]c(N)nc34)c(-c3nn[nH]n3)c2S(N)(=O)=O)C1.O=C([O-])O (stereo partly shown)
pIC50: 10.82
--
molecule: Nc1ccc(-c2ccc(S(N)(=O)=O)c(S(N)(=O)=O)c2-c2nn[nH]n2)cn1
pIC50: 8.79
--
molecule: NCC(CN)NS(=O)(=O)c1ccc(-c2cccc(-c3nc[nH]n3)c2)c(-c2nn[nH]n2)c1S(N)(=O)=O
pIC50: 10.32
--
molecule: COCCNS(=O)(=O)c1ccc(-c2cccc3sc(N)nc23)c(-c2nnn[nH]2)c1S(N)(=O)=O
pIC50: 10.14
